system: human VDR (Homo sapiens)
Sequence (P11473 whole entry): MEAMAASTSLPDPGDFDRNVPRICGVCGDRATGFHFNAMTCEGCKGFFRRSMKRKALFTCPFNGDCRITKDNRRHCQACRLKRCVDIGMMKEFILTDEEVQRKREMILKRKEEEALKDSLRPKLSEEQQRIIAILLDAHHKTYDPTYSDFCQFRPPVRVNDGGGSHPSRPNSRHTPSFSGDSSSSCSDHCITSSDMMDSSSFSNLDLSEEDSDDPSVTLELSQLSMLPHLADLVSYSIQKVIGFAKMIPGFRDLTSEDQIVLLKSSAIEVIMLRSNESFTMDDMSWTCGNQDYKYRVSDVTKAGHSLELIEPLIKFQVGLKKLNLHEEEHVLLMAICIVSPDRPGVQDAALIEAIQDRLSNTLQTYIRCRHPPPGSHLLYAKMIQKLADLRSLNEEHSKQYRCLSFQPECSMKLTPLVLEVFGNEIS
method.description: Transient transactivation assay (CYP24-Luc), antagonist mode with 3 nM 1,25D3, HEK293T cells
Format: cell-based
recorded.conditions: top asymptote of Hill or Gain-Loss model, maximum response
Structures can show the parent of a compound that is named as a salt.
parameter: Derived Efficacy (fold inhibition)

compound	system	parameter	result.units	endpoint.value
O=C([O-])c1ccccc1-c1c2ccc(=O)cc-2oc2cc([O-])ccc12.[Na+].[Na+] [Fluorescein sodium, reference compound]	human VDR (Homo sapiens)	Derived Efficacy (fold inhibition)	fold inhibition	101.7383
Cc1cc(O)c2ccccc2c1O [Menadiol, reference compound]	human VDR (Homo sapiens)	Derived Efficacy (fold inhibition)	fold inhibition	101.7383
Nc1ccc2cc3ccc(N)cc3nc2c1 [Proflavine hydrochloride]	human VDR (Homo sapiens)	Derived Efficacy (fold inhibition)	fold inhibition	68.3825
C[C@]1(Cn2ccnn2)[C@H](C(=O)O)N2C(=O)C[C@H]2S1(=O)=O [Tazobactam sodium, reference compound]	human VDR (Homo sapiens)	Derived Efficacy (fold inhibition)	fold inhibition	79.1108
CN(C)C(=S)SSC(=S)N(C)C	human VDR (Homo sapiens)	Derived Efficacy (fold inhibition)	fold inhibition	76.1807
CC(C)C[C@H](NC(=O)[C@H](CCc1ccccc1)NC(=O)CN1CCOCC1)C(=O)N[C@@H](Cc1ccccc1)C(=O)N[C@@H](CC(C)C)C(=O)[C@@]1(C)CO1 [Carfizomib, reference compound]	human VDR (Homo sapiens)	Derived Efficacy (fold inhibition)	fold inhibition	80.6485

The values you see were collected from paper PMC5995905.
